- Test system: HepG2-TUBA1B-RELA
- MEASUREMENT_NOTES: phenotypically active (imaging signature differs from DMSO and reproducible) at any of 0.3-9 uM (binary (1 = active, 0 = inactive)); higher = active
- MEASUREMENT_SETUP: treatment time: 24 h
Structures can show the parent of a compound that is named as a salt.
Here, each record is paired with measured phenotypically active data.
OBSERVABLE: phenotypically active

[[record]]
molecule = "CCCOc1ccc(CCc2nc3cc(-c4c(C)noc4C)ccc3n2CCN2CCOCC2)cc1"
value_reported = 0

[[record]]
molecule = "CCN1CCN(c2ccc(Nc3cc(N(C)C(=O)Nc4c(Cl)c(OC)cc(OC)c4Cl)ncn3)cc2)CC1"
value_reported = 0

[[record]]
molecule = "O=C(Nc1ccc(-c2ccnc(Nc3ccc(N4CCOCC4)cc3)n2)cc1)[C@@H]1CCCN1"
value_reported = 1

[[record]]
molecule = "C[C@@H]1CCN(C(=O)CC#N)C[C@@H]1N(C)c1ncnc2[nH]ccc12"
value_reported = 0

[[record]]
molecule = "C[C@H]1C[C@@H]2[C@H]([C@@H](O)C[C@@]3(C)[C@H]2CC[C@]3(O)C(=O)CO)[C@@]2(C)C=CC(=O)C=C12 [methylprednisolone]"
value_reported = 0

[[record]]
molecule = "Cc1ccc(-n2nc(C(C)(C)C)cc2NC(=O)Nc2ccc(OCCN3CCOCC3)c3ccccc23)cc1"
value_reported = 1

[[record]]
molecule = "CCCc1cc2c(N3CCN(C4=NCC(C)(C)S4)CC3)ncnc2s1 [MI 2 dihydrochloride]"
value_reported = 0

[[record]]
molecule = "CC(C)C(=O)SCCCCC[C@H](NC(=O)OC(C)(C)C)C(=O)NC12CC3CC(CC(C3)C1)C2"
value_reported = 0

[[record]]
molecule = "CCCCN1CCCCC1C(=O)Nc1c(C)cccc1C (stereo not drawn) [bupivacaine]"
value_reported = 0

[[record]]
molecule = "CC(C)n1nc(-c2cc3cc(O)ccc3[nH]2)c2c(N)ncnc21"
value_reported = 1

[[record]]
molecule = "COc1cc2c(Nc3ccc(Br)cc3F)ncnc2cc1OCC1CCN(C)CC1 [vandetanib]"
value_reported = 1

[[record]]
molecule = "CC1CNCCN1S(=O)(=O)c1cccc2cnccc12 (stereo not drawn) [H-7 dihydrochloride]"
value_reported = 1

[[record]]
molecule = "CCOC(=O)CCNc1cc(N2CCc3ccccc3CC2)nc(-c2ccccn2)n1"
value_reported = 1

[[record]]
molecule = "CN(C)CCCNc1c2c(=O)n(C)c(=O)nc-2n(C)c2ccccc12"
value_reported = 1

[[record]]
molecule = "O=C(NC(CO)C(O)c1ccc([N+](=O)[O-])cc1)C(Cl)Cl (stereo not drawn) [Chloramphenicol]"
value_reported = 0

[[record]]
molecule = "Cc1nc(=O)c2c([nH]1)CCSC2"
value_reported = 0

[[record]]
molecule = "CN1C(=O)OC(C)(C)C1=O [trimethadione]"
value_reported = 0

[[record]]
molecule = "Cc1c2oc3c(C)ccc(C(=O)NC4C(=O)NC(C(C)C)C(=O)N5CCCC5C(=O)N(C)CC(=O)N(C)C(C(C)C)C(=O)OC4C)c3nc-2c(C(=O)NC2C(=O)NC(C(C)C)C(=O)N3CCCC3C(=O)N(C)CC(=O)N(C)C(C(C)C)C(=O)OC2C)c(N)c1=O (stereo not drawn) [Actinomycin D]"
value_reported = 1

